# target_under_test: Mycobacterium thermoresistible (Mtr) LpqY (Mycolicibacterium thermoresistibile, UniProt G7CES0)
# Sequence (G7CES0 29-471): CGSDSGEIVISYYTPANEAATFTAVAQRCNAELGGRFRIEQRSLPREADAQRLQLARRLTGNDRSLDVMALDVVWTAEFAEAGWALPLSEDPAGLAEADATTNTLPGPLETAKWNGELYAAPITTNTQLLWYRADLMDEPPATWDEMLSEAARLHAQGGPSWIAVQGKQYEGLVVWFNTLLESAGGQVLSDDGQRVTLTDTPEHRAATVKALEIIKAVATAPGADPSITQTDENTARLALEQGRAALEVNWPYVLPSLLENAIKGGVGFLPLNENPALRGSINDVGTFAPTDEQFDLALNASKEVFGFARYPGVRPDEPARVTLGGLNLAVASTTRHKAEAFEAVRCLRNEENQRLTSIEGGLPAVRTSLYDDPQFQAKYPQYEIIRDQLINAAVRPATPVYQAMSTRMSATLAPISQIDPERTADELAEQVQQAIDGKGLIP
# Format: binding
# reported_conditions: compound 100 μM, LpqY 500 nM, 10% DMSO, duplicate
Rule: measured Screen signal/noise ratio (MST S/N) below 6 gets satisfied; anything equal to or greater than 6 gets not satisfied.

Solved cases below.
Q) A record lists COc1ccccc1C(C)NCC(=O)Nc1cc(C(F)(F)F)ccc1Cl (stereo not drawn) . Is its Screen signal/noise ratio (MST S/N) below 6?
A) satisfied

Q) # check: Screen signal/noise ratio (MST S/N) < 6 for Nc1cccnc1Nc1ccc(Cl)cc1
A) not satisfied

Q) Answer whether the compound CS(=O)(=O)c1ccccc1C(=O)N(Cc1ccccc1)c1ccccc1 has Screen signal/noise ratio (MST S/N) strictly less than 6
A) satisfied

Continuing:
Q) Lab log: compare recorded Screen signal/noise ratio (MST S/N) with 6; is it strictly lower for CC1(C)OB(O)c2ccc(C3=NOC(c4cc(Cl)c(F)c(Cl)c4)(C(F)(F)F)C3)cc21 (stereo not drawn) ?
A) not satisfied

###

# target_under_test: Mycobacterium thermoresistible (Mtr) LpqY (Mycolicibacterium thermoresistibile, UniProt G7CES0)
# Type: binding
# reported_conditions: single dose MST screen against LpqY
For each record, check the reported Pathogen Box screen signal/noise ratio: if it is below 0.8 write met, else write not met.

Below, 5 compounds whose answers are already recorded.
Q) Answer whether the compound COc1cccc(-c2cc3c(Nc4cccnc4)nccc3[nH]2)c1 has Pathogen Box screen signal/noise ratio strictly less than 0.8
A) not met

Q) Please check: Pathogen Box screen signal/noise ratio for FC(F)(F)c1cnc(Sc2nnc(-c3ccncc3)o2)c(Cl)c1 , strictly under 0.8 or not?
A) not met

Q) Hello, I'm reviewing records and need to know if Pathogen Box screen signal/noise ratio of COc1cc(OC)cc(C(=O)NCC2Cc3cc(Cl)cc(-c4ccncc4)c3O2)c1 (stereo not drawn) is below 0.8. Could you check?
A) met

Q) In plain terms, does COc1nc2ccc(Br)cc2cc1[C@@H](c1ccccc1)[C@@](O)(CCN(C)C)c1cccc2ccccc12 come in under 0.8 for Pathogen Box screen signal/noise ratio?
A) met

Q) API: query returns whether the compound falls strictly under 0.8 in Pathogen Box screen signal/noise ratio. Query: CCOC(=O)c1cc(-c2csc(Nc3c(C)cc(C)cc3C)n2)on1
A) not met

***
Q) Answer whether the compound CC(C)(C)n1nc(Cc2cccc3ccccc23)c2c(N)ncnc21 has Pathogen Box screen signal/noise ratio strictly less than 0.8
A) met

Q) Determine whether this compound shows Pathogen Box screen signal/noise ratio lower than 0.8 (ties excluded): CCc1nn(C)c(C(=O)NCc2ccc(Oc3ccc(C)cc3)cc2)c1Cl
A) not met

Q) Strictly below 0.8: is that where Pathogen Box screen signal/noise ratio of CNCCC(Oc1ccc(C(F)(F)F)cc1)c1ccccc1 (stereo not drawn) sits?
A) not met

###

Pathogen Box screen signal/noise ratio: recorded values
# target_under_test: Mycobacterium thermoresistible (Mtr) LpqY (Mycolicibacterium thermoresistibile)
# Assay type: binding
# reported_conditions: single dose MST screen against LpqY
# print the numeric value only

Q) Dear colleague, I am looking for the recorded Pathogen Box screen signal/noise ratio of the following compound: CO/C=C(/C(=O)OC)c1ccccc1Oc1cc(Oc2ccccc2C#N)ncn1
A) 0.6

Q) Could you share which Pathogen Box screen signal/noise ratio value was measured for Cc1cccc(NC(=O)c2cc(S(=O)(=O)N(C)c3ccc(F)cc3)ccc2Cl)n1 ?
A) 1.1
